experiment: in vivo; set-up: species or system baboon; settings: female, monkey, po
result type: half-life

What value of half-life has been reported for the following compound? CCC(C)(C)C(=O)[O-].[Na+] [DMB, Sodium 2,2-dimethylbutyrate]
2.89 to 6.92 h

* * *

test: clinical; settings: human, in vivo, 20 mg/kg, mean Cmax
result type: Cmax (µg/mL)
Only the number, expressed in µg/mL, is required.

Can you share its Cmax? I mean this compound: CCC(C)(C)C(=O)[O-].[Na+] [DMB, Sodium 2,2-dimethylbutyrate]
89

* * *

assay: Solubility in water; assay type: physicochemical
result type: solubility

Recorded solubility of CCC(C)(C)C(=O)[O-].[Na+] [DMB, Sodium 2,2-dimethylbutyrate] , please.
> 500 mg/mL

* * *

assay: in vivo; set-up: species or system Beagle dogs; conditions: both sexes, Beagle, dog, po, 50 mg/kg
result type: AUC(0-inf) (µg·h/mL)
Give the quantity in µg·h/mL, number only.

What value of AUC(0-inf) has been recorded for this entry: CCC(C)(C)C(=O)[O-].[Na+] [DMB, Sodium 2,2-dimethylbutyrate]
127

* * *

assay: Phase 1 repeat-dose clinical study, pharmacokinetics; format: in vivo, human; details: human, plasma, oral; all dose levels, both days, dosing with food
result type: Tmax

Name the recorded Tmax for CCC(C)(C)C(=O)[O-].[Na+] [DMB, Sodium 2,2-dimethylbutyrate] .
2.5 to 4.4 h

* * *

assay: Phase 1 repeat-dose clinical study, pharmacokinetics; assay type: in vivo, human; conditions: human, plasma, oral, 15 mg/kg, Day 0, fed; read-out: AUC0-24
result type: AUC(0-t) (µg·h/mL)
Write the number in µg·h/mL without appending the unit.

Give its AUC(0-t) value. Item: CCC(C)(C)C(=O)[O-].[Na+] [DMB, Sodium 2,2-dimethylbutyrate]
697

* * *

experiment: clinical; details: human, in vivo, 2 mg/kg
result type: AUC(0-inf) (ng·h/mL)
Give the number; ng·h/mL is assumed, so skip it.

Would you mind telling me what AUC(0-inf) value was observed for CCC(C)(C)C(=O)[O-].[Na+] [DMB, Sodium 2,2-dimethylbutyrate] ?
38000

* * *

test: clinical; conditions: human, in vivo
result type: Vd

Form field: reported Vd of CCC(C)(C)C(=O)[O-].[Na+] [DMB, Sodium 2,2-dimethylbutyrate]
0.204 to 0.426 L/kg

* * *

experiment: Phase 1 repeat-dose clinical study, pharmacokinetics; format: in vivo, human; settings: human, plasma, oral, 5 mg/kg, Day 0, fed, with iron; read-out: AUC0-24
result type: AUC(0-t) (µg·h/mL)
Reply numerically in µg·h/mL, unit not repeated.

What value of AUC(0-t) has been recorded for this entry: CCC(C)(C)C(=O)[O-].[Na+] [DMB, Sodium 2,2-dimethylbutyrate]
226

* * *

assay: Phase 1 repeat-dose clinical study, pharmacokinetics; type: in vivo, human; conditions: human, plasma, oral, 10 mg/kg, Day 0, fed; read-out: mean plasma Cmax
result type: Cmax (ng/mL)
Reply numerically in ng/mL, unit not repeated.

# get_value(readout='Cmax', item= CCC(C)(C)C(=O)[O-].[Na+] [DMB, Sodium 2,2-dimethylbutyrate] )
30600

* * *

Assay: clinical
Conditions: human, in vivo, 5 mg/kg
Procedure: The first clinical study was a phase 1, double-blind, placebo-controlled, single dose study of the tolerability, safety and pharmacokinetics of DMB in 32 healthy volunteers. Healthy, fasting adult volunteers received single oral doses of DMB or placebo capsules at one of four dose levels (2 mg/kg, 5 mg/kg, 10 mg/kg and 20 mg/kg). Six subjects received study drug (24 subjects total) and 2 subjects received placebo at each dose level. […]
result type: AUC(0-inf) (µg·h/mL)
Your answer is read as µg·h/mL, so omit the unit and give the number.

GET /values?readout=AUC(0-inf)&item= CCC(C)(C)C(=O)[O-].[Na+] [DMB, Sodium 2,2-dimethylbutyrate]
320

* * *

assay: Phase 1 repeat-dose clinical study, pharmacokinetics; type: in vivo, human; conditions: human, plasma, oral, 10 mg/kg, Day 13
result type: AUC
Returns: string containing the number followed by the unit.

I have this compound here, CCC(C)(C)C(=O)[O-].[Na+] [DMB, Sodium 2,2-dimethylbutyrate] , and I need its recorded AUC.
538 µg·h/mL

* * *

assay: in vivo; design: species or system Beagle dogs; details: both sexes, Beagle, dog, po, 150 mg/kg
result type: AUC(0-inf) (µg·h/mL)
Report the figure in µg·h/mL without appending any unit label.

Any idea what its AUC(0-inf) is? The compound is CCC(C)(C)C(=O)[O-].[Na+] [DMB, Sodium 2,2-dimethylbutyrate]
473

* * *

assay: clinical; details: human, in vivo, 10 mg/kg
result type: half-life (h)
Quick note: give the figure in h, leave out the unit.

May I ask what half-life has been recorded for CCC(C)(C)C(=O)[O-].[Na+] [DMB, Sodium 2,2-dimethylbutyrate] ?
12.1

* * *

test: Pharmacokinetics of single doses in 5 baboons; details: monkey, in vivo
result type: clearance

Value lookup for clearance; key = CCC(C)(C)C(=O)[O-].[Na+] [DMB, Sodium 2,2-dimethylbutyrate]
0.833 to 7 mL/min/kg

* * *

Assay: in vivo
Design: species or system Sprague-Dawley rats
Conditions: female, Sprague-Dawley, rat
Method: […] With respect to the FOB measurements, the effect of DMB appeared to be more pronounced in females than males. […] However, decreased motor activity, reduced rectal temperature, direct limbic effects such as a deficit in visual tactile placing accuracy, ataxia, dragging of the hindlimbs in the open field, and decreased grip strength and neuromotor-neuromuscular deficits were only documented in the female rats at 600 mg/kg. […]
result type: NOAEL at 14 days (mg/kg/day)
Your answer should be a plain number; it is taken to be in mg/kg/day.

Fill blank: measured NOAEL at 14 days of the compound CCC(C)(C)C(=O)[O-].[Na+] [DMB, Sodium 2,2-dimethylbutyrate] is ____.
200

* * *

experiment: Phase 1 repeat-dose clinical study, pharmacokinetics; format: in vivo, human; settings: human, plasma, oral, 5 mg/kg, Day 13, fed, with iron; read-out: Cmax
result type: Cmax (ng/mL)
# value in ng/mL; strip the unit string

Request the reported Cmax associated with CCC(C)(C)C(=O)[O-].[Na+] [DMB, Sodium 2,2-dimethylbutyrate]
24800

* * *

test: Phase 1 repeat-dose clinical study, pharmacokinetics; format: in vivo, human; conditions: human, plasma, oral, 5 mg/kg, Day 13, without iron; read-out: Average Cmax
result type: Cmax
Be sure to follow the number with its unit.

Which Cmax value belongs to CCC(C)(C)C(=O)[O-].[Na+] [DMB, Sodium 2,2-dimethylbutyrate] ?
22400 ng/mL

* * *

assay: Phase 1 repeat-dose clinical study, pharmacokinetics; assay type: in vivo, human; conditions: human, plasma, oral, 5 mg/kg, Day 13, with iron
result type: AUC (µg·h/mL)
Could you give me the number in µg·h/mL? Just the number is fine.

Which AUC reading was recorded for the molecule CCC(C)(C)C(=O)[O-].[Na+] [DMB, Sodium 2,2-dimethylbutyrate] ?
360

* * *

assay: clinical; conditions: human, in vivo, 20 mg/kg
result type: AUC(0-inf) (µg·h/mL)
Response body: numeric value in µg·h/mL, unit text excluded.

Dear colleague, I am looking for the recorded AUC(0-inf) of the following compound: CCC(C)(C)C(=O)[O-].[Na+] [DMB, Sodium 2,2-dimethylbutyrate]
1190

* * *

assay: Pharmacokinetics of single doses in 5 baboons; conditions: monkey, in vivo, median half-life
result type: half-life

For CCC(C)(C)C(=O)[O-].[Na+] [DMB, Sodium 2,2-dimethylbutyrate] , what is its reported half-life?
2.7 h

* * *

assay: Phase 1 repeat-dose clinical study, pharmacokinetics; format: in vivo, human; settings: human, plasma, oral, 10 mg/kg, Day 13; read-out: Cmax
result type: Cmax (ng/mL)
Respond numerically; units are ng/mL and should not be typed.

Fill in the blank: the reported Cmax of CCC(C)(C)C(=O)[O-].[Na+] [DMB, Sodium 2,2-dimethylbutyrate] is ____.
35700

* * *

experiment: in vivo; design: species or system Beagle dogs; details: both sexes, Beagle, dog
result type: NOAEL at 26 weeks

Request the reported NOAEL at 26 weeks associated with CCC(C)(C)C(=O)[O-].[Na+] [DMB, Sodium 2,2-dimethylbutyrate]
≥ 300 mg/kg/day

* * *

assay: Phase 1 repeat-dose clinical study, pharmacokinetics; type: in vivo, human; conditions: human, plasma, oral, 15 mg/kg, Day 13; read-out: Cmax
result type: Cmax (µg/mL)
Enter your answer as a number in µg/mL; do not include the unit.

Quick one: Cmax for CCC(C)(C)C(=O)[O-].[Na+] [DMB, Sodium 2,2-dimethylbutyrate] ?
67.6

* * *

experiment: in vivo; design: species or system Sprague-Dawley rats; details: male, Sprague-Dawley, rat
result type: NOAEL at 14 days (mg/kg/day)
Provide the reading as a plain figure in mg/kg/day.

I'd like to know its NOAEL at 14 days. The compound in question is CCC(C)(C)C(=O)[O-].[Na+] [DMB, Sodium 2,2-dimethylbutyrate]
600
